// provenance: ChEMBL document CHEMBL3421540

Molecular target: Glycine receptor subunit alpha-1 (Homo sapiens) (UniProt P23415)
Sequence (whole entry): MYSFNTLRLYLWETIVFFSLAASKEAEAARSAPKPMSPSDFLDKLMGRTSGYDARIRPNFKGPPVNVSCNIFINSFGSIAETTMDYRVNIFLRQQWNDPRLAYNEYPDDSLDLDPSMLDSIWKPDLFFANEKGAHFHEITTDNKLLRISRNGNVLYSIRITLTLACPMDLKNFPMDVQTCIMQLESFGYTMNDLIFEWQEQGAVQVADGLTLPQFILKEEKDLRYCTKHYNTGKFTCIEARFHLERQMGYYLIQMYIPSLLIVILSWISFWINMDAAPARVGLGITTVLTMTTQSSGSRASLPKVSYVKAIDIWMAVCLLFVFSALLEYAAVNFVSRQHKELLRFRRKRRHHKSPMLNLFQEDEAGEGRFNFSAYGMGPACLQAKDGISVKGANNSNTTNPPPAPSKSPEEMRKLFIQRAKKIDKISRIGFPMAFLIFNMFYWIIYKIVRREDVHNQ
Experiment: Potentiation of human GlyR-alpha1 expressed in Xenopus laevis oocytes assessed as induction of glycine-activated currents at 10 uM after 1 to 4 days by two-electrode voltage clamp assay relative to control
Format: cell-based
Hi! Could you tag entries with %max below 200% as Criterion met, and those at or above as Criterion not met? Much appreciated.

Recorded results for 5 molecules are shown here.
In [3]: df
Out[3]:
                                   molecule         class_name
0  COc1ccc(CCN2CCC(Nc3nc4ccccc4n3Cc3ccc(F)cc3)CC2)cc1 [ASTEMIZOLE]  Criterion not met
1  Cc1nc2n(c(=O)c1CCN1CCC(c3noc4cc(F)ccc34)CC1)CCCC2 [RISPERIDONE]      Criterion met
2       COc1cc(OC)c(NC(=O)Nc2cc(C)on2)cc1Cl      Criterion met
3  Cc1nc2c([nH]1)-c1ccccc1N(C(=O)c1ccc(NC(=O)c3ccccc3-c3ccccc3)cc1)CC2      Criterion met
4  OC(c1cc(C(F)(F)F)nc2c(C(F)(F)F)cccc12)C1CCCCN1 (stereo not drawn) [MEFLOQUINE]  Criterion not met

Lab note: confirm whether the reported %max for this molecule is below 200%, equality not counting. molecule: CCCc1nc2c(C)cc(-c3nc4ccccc4n3C)cc2n1Cc1ccc(-c2ccccc2C(=O)O)cc1
Criterion not met

Lab note: confirm whether the reported %max for this molecule is below 200%, equality not counting. molecule: O=c1[nH]c2ccccc2n1C1CCN(CCCC(c2ccc(F)cc2)c2ccc(F)cc2)CC1 [PIMOZIDE]
Criterion not met

Lab note: confirm whether the reported %max for this molecule is below 200%, equality not counting. molecule: C[C@@H](NCCCc1cccc(C(F)(F)F)c1)c1cccc2ccccc12
Criterion not met

###

Molecular target: Glycine receptor subunit alpha-1 (Homo sapiens)
Assay: Potentiation of human GlyR-alpha1 expressed in Xenopus laevis oocytes assessed as induction of glycine-activated currents after 1 to 4 days by two-electrode voltage clamp assay
quantity-kind: EC50 (nM)
Give bare numbers, in nM.

Recorded results for 4 molecules are shown here.
>>> df
                                   molecule  quantity_kind  quantitative_readout
0  COc1ccc(CCN2CCC(Nc3nc4ccccc4n3Cc3ccc(F)cc3)CC2)cc1           EC50                  4200
1  O=C1NCN(c2ccccc2)C12CCN(CCCC(c1ccc(F)cc1)c1ccc(F)cc1)CC2           EC50                  1200
2  C[C@]12C=CC(=O)N[C@@H]1CC[C@@H]1[C@@H]2CC[C@]2(C)[C@@H](C(=O)Nc3cc(C(F)(F)F)ccc3C(F)(F)F)CC[C@@H]12 [DUTASTERIDE]           EC50                   330
3  OC(c1cc(C(F)(F)F)nc2c(C(F)(F)F)cccc12)C1CCCCN1 (stereo not given)           EC50                  2500

Look up EC50 of C[C@@H](NCCCc1cccc(C(F)(F)F)c1)c1cccc2ccccc12 and report it.
320
